Assay: growth suppression of beta-catenin knockout HCT116, pilot screen, human colon tumor cells (AID 823);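 note: 0% = wells killed by 20 µM Hyamine and 100% = untreated DMSO cell wells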
Settings: CellTiter-Glo, 60 h, at 10 µM, stronger effect = lower value
Inconclusive results are not listed.
quantity: viability (%)
Please give a number only; it is taken to be in %.

molecule	viability (%)
COc1ccc(-n2c(Cc3cc(=O)[nH]c(=O)[nH]3)nnc2SCC(=O)Nc2ccccc2)cc1	105
CCN(C(=O)COC(=O)C(Cc1ccccc1)N1C(=O)c2ccccc2C1=O)C1CCS(=O)(=O)C1 (stereo not given)	97.4
OC(COc1ccccc1Cl)CN1CCN(CC(O)COc2ccccc2Cl)CC1 (stereo not given)	73.3
CCOC(=O)C(C)c1nn(C)c(=O)c2ccccc12 (stereo not given)	97.4
Cc1cc(C)nc(N(C#N)Cc2ccccc2Cl)n1	99.7

// query Give reported viability value for O=C(NCCCN1CCCC1)c1ccc(CS(=O)(=O)c2ccc(Br)cc2)o1
// result 90.6

// query Give reported viability value for O=C(O)CCCC(=O)NCCCc1ccccc1
// result 98.5

// query Give reported viability value for O=C(CC(=O)N1CCN(c2ccccn2)CC1)Nc1ccc2nc3n(c(=O)c2c1)CCCCC3
// result 101

// query Give reported viability value for Cc1c(C(=O)NCc2ccc3c(c2)OCO3)oc2ccc(S(=O)(=O)N3CCCCCC3)cc12
// result 77.5

// query Give reported viability value for CCOc1ccc(NC(=O)Nc2ccc3c(c2)N(C)C(=O)CS3)cc1
// result 98.9

// query Give reported viability value for Cc1cc(/C=N/n2cnnc2)c(C)n1-c1cc(Cl)ccc1Cl
// result 51.9

// query Give reported viability value for CCn1c(C2CC(=O)N(Cc3ccccc3)C2)nc2ccccc21 (stereo not given)
// result 102

// query Give reported viability value for Cc1ccc(S(=O)(=O)N2CCCC(C(=O)N(Cc3cccs3)C3CC3)C2)cc1 (stereo not given)
// result 61.3

// query Give reported viability value for COc1ccc(NC(=O)Nc2nnc(N3CCC(C)CC3)s2)cc1OC
// result 107

// query Give reported viability value for CCOC(=O)C(C)Sc1nnc(Cn2c(=O)sc3ccccc32)n1-c1ccccc1 (stereo not given)
// result 95.6

// query Give reported viability value for Cc1ccccc1-n1c(C)nc2ccccc21
// result 95.9

// query Give reported viability value for CS(=O)(=O)c1ccc2nc(NC(=O)C3CCCCC3)sc2c1
// result 72.2

// query Give reported viability value for COc1ccc(-c2nc(CS(=O)CC(=O)NC3CCCc4ccccc43)c(C)o2)cc1OC (stereo not given)
// result 84.5

// query Give reported viability value for CC1(C)C(C#N)=C(N)OC2=C1C(=O)CCC2
// result 96.3

---

Experiment: viability gain of MRP-1-high H69AR cells under doxorubicin, pilot screen, MRP-1 activator project, CellTiter-Glo, duplicate (AID 807);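 note: compound pretreatment 18-22 h then 72 h combined with doxorubicin; 0% = doxorubicin alone and 100% = vehicle without doxorubicin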
Details: H69AR viability with doxorubicin, CellTiter-Glo luminescence; at 10 µM; stronger effect = higher value
quantity: viability increase (%)
Please give a number only; it is taken to be in %.

Solved entries (count: 10):
molecule	viability increase [%]
Cc1ccc(C(=O)Nc2cccc(C(=O)O)c2)cc1S(=O)(=O)N1CCCCC1	0.18
O=C(Cn1nc(-c2ccccc2)ccc1=O)Nc1ccc(N2CCN(C(=O)c3ccccc3)CC2)cc1	-1.77
COc1ccc(CNc2ccc3cn[nH]c3c2)c(OC)c1OC	-2.25
Cc1cc2cc(CNC(=O)c3ccc(S(=O)(=O)N4CCCCC4)cc3)ccc2n1C	-0.91
COc1ccc(-c2nnc(SCC(=O)NC(C)C)n2CC2CCCO2)cc1OC (stereo unspecified)	0.35
O=C(Cn1ncc2c(=O)oc3ccccc3c21)N(Cc1ccco1)C1CCCCC1	-4.59
CC(C)OC(=O)CSc1nnc(-c2ccncc2)n1N	-2.11
N#Cc1ccc(NC(=O)Nc2ccc(Cl)cc2)cc1	-7.91
CC(=O)Nc1ccc(NC2(C)C(=O)c3ccccc3C2=O)cc1	-1.88
Cn1c(SCc2c(F)cccc2Cl)nnc1-c1cnccn1	-0.67

// next entry
// query Give reported viability increase value for O=C1c2ccccc2C(=O)N1CCCc1nc(-c2ccc(Cl)cc2)no1
// result -1.79

---

Each record here notes measured RAM network inhibition.
Test: RAM signaling pathway blockade in yeast – S. cerevisiae, Pdr1DBD-CYC8 efflux-inhibited sensitized strain, primary screen (AID 1298);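 note: 0% = DMSO untreated cells without growth and 100% = 10 µM 1-NA-PP1 full growth; higher means more yeast growth rescued from 5-FOA killing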
Details: S. cerevisiae cbk1-as DSE1-URA3 strain, 5-FOA growth OD615, 2 d; at 50 µM; stronger effect = higher value
Please give a number only; it is taken to be in %.

Solved entries (count: 3):
compound	RAM network inhibition (%)
CCn1cc(C(=O)NC2CCCCCC2)c(=O)c2cc(S(=O)(=O)N3CCCCC3)ccc21	2.45
CCOc1ccccc1C1CC(c2ccccc2)Nc2nc(N)nn21 (stereo unspecified)	2.72
CCCCC(CC)CNC(=O)c1[nH]c(C)c(C(C)=O)c1C (stereo unspecified)	1.29

// query Give reported RAM network inhibition value for Cc1ccc(-n2c3c(cc(C(=O)N4CCN(C)CC4)c2=O)C(=O)CC(C)(C)C3)cc1
// result 2.1

// query Give reported RAM network inhibition value for CCC(CC)C(=O)NCc1ccccc1OC
// result 2.02

// query Give reported RAM network inhibition value for CCOC(=O)CSc1nnc(Cc2cc(=O)[nH]c(=O)[nH]2)n1-c1ccc(Cl)cc1
// result 4.03

// query Give reported RAM network inhibition value for O=S(=O)(NCC(c1cccnc1)N1CCN(Cc2ccccc2)CC1)c1ccccc1 (stereo unspecified)
// result 0.96

// query Give reported RAM network inhibition value for O=C(CCCC(=O)OCC(F)(F)C(F)F)Nc1nccs1
// result -0.01

// query Give reported RAM network inhibition value for O=C(OCC(=O)c1cccs1)c1ccc(NC(=O)c2ccco2)cc1
// result 0.26

// query Give reported RAM network inhibition value for c1ccc2c(c1)CCN(CCCNc1nc3ccccc3n3cnnc13)C2
// result -1.09

// query Give reported RAM network inhibition value for CC1CCCC(NC(=O)CSc2nnnn2C)C1C (stereo unspecified)
// result 2.27

---

Assay: OD615 S. cerevisiae growth inhibition, permissive medium, pilot counter-assay, permissive growth control for S. cerevisiae lifespan shortening project (AID 705)
Details: OD615, 24 h, at 10 µM, stronger effect = higher value
Could you label it true if measured growth inhibition is -10% or higher, and false otherwise?

Please review the following examples before continuing.
molecule	class-assignment
Cc1nn(C)c(C)c1S(=O)(=O)N(CC(=O)NCc1ccco1)c1ccc(C(C)C)cc1	false
CC1=CC(c2ccccc2)n2nc(NS(=O)(=O)c3ccc(C)cc3)nc2N1 (centres undefined)	true
COc1ccc(N2C(=O)C3CCCN3C2c2ccccc2)cc1 (centres undefined)	true
CCc1cccc(NC(=O)CS(=O)Cc2nc(-c3ccc(C)cc3)oc2C)c1 (centres undefined)	true
Cn1c(=O)c2c(nc(SCCN3CCOCC3)n2Cc2ccccc2Cl)n(C)c1=O	false

// query Is growth inhibition for COc1cc(NC(=O)c2cc(-c3cccc(O)c3)on2)cc(OC)c1OC at or above -10%?
// result false

// query Is growth inhibition for CC(C)C(C(=O)NC(C)(C)C)N1C(=O)c2ccccc2C1=O (centres undefined) at or above -10%?
// result true

// query Is growth inhibition for Cc1ccc2oc(=O)c3cc(C(=O)N4CCN(c5ncccn5)CC4)sc3c2c1 at or above -10%?
// result true

// query Is growth inhibition for COc1ccc(OC)c2sc(NC(=O)C(C)C)nc12 at or above -10%?
// result false

// query Is growth inhibition for CSc1nc2ccc(NS(=O)(=O)c3ccc4c(c3)OCCO4)cc2s1 at or above -10%?
// result true

// query Is growth inhibition for O=C(Cc1cccs1)NCCn1ccc2ccccc21 at or above -10%?
// result false

// query Is growth inhibition for O=P(O)(CCc1ccncc1)CN1CCCCC1 at or above -10%?
// result true

// query Is growth inhibition for CC1(C)CCCC2=C1CC1C(=O)N(O)C(=O)C1C2 (centres undefined) at or above -10%?
// result true

// query Is growth inhibition for COc1ccc(N2CCN(C3CC(=O)N(C)C3=O)CC2)cc1 (centres undefined) at or above -10%?
// result true

// query Is growth inhibition for Cc1ccc2c(c1)N(CCCC(=O)NCc1ccc3c(c1)OCO3)C(=O)CO2 at or above -10%?
// result true

// query Is growth inhibition for O=C(c1ccccc1)c1ccc(N2CCCC2)cc1 at or above -10%?
// result true

---

Each record here notes measured inhibition.
Experiment: inhibitors of the yeast RAM network, pilot screen, dse1pr::URA3 reporter, 5-FOA selection (AID 869);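 note: 0% = DMSO wells with no growth and 100% = 10 µM 1-NA-PP1 with full growth; RAM network block rescues cells from 5-FOA so hits raise OD615 growth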
Conditions: S. cerevisiae dse1pr::URA3 5-FOA growth, OD615, 2 d; at 10 µM; stronger effect = higher value; strain carries analog-sensitive mutant Cbk1 kinase
Please give a number only; it is taken to be in %.

Solved entries (count: 3):
compound	inhibition [%]
Cc1sc(NC(=O)c2cccs2)c(C(N)=O)c1C	0.26
Cc1ccc(N2C(=O)c3ccccc3C2Nc2ccccc2F)nc1 (configuration not stated)	2.46
Cc1cc(C(=O)NC2CCCC2)on1	1.71

// query Give reported inhibition value for CC(=O)C1(O)C(C)CC2C3CCC4CC(O)CCC4(C)C3=CCC21C (configuration not stated)
// result 0.305

// query Give reported inhibition value for CN(C)S(=O)(=O)c1ccc2c(c1)c(=O)c(C(=O)N1CCN(c3ccccn3)CC1)cn2C
// result 0.415

// query Give reported inhibition value for [O-]/[N+](=C/c1cccnc1)c1ccc(Br)cc1
// result 2.69

Entry source: PubChem BioAssay
